TEST_SYSTEM: Human c20S proteasome β5 subunit (Homo sapiens, UniProt P20618+P28074)
Construct: purchased Bio-Techne
TEST_SUMMARY: In vitro proteasome assay, suc-LLVY-amc substrate
Format: biochemical
TEST_SETTINGS: Human c20S proteasome inhibition of β5 subunit (IC50), purified human c20S with PA28α, mean ± SD
ASSAY_READOUT: pIC50
pIC50 is a log-scale quantity: -log10 of the concentration expressed in molar.

Human c20S proteasome β5 subunit (Homo sapiens, UniProt P20618+P28074) assay, compound COc1ccc(CC(NC(=O)C(C)NC(=O)CN2CCOCC2)C(=O)NC(Cc2ccc(-c3ccccc3)cc2)C(=O)C2(C)CO2)cc1 (stereo not shown) [compound 3] , recorded pIC50 = 7.74

Origin of measurements: paper PMC12691669
